The reported numbers originate from paper PMC6830221.

Biological target: WT AcAChBP (Aplysia californica, UniProt Q8WSF8)
Sequence (Q8WSF8 entry or part of it): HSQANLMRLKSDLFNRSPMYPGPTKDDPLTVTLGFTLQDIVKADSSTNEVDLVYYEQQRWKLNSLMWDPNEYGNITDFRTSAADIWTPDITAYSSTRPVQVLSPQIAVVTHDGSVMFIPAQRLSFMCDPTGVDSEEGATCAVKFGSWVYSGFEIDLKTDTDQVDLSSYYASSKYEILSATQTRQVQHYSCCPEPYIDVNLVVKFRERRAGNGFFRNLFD
Test: Tryptophan fluorescence-quenching assay
Format: binding
Parameters: made in house; host or cells: baculovirus/Sf9
pKd: −log10 of the molar value.
Quick reference: pKd of the listed items.
measure: pKd

> print(dat)
                                        smi  measure   val
1  CN1[C@@H]2CC[C@H]1C[C@@H](OC(=O)c1c[nH]c3ccccc13)C2      pKd  6.56
2  O=C1C[C@@H]2OCC=C3CN4CC[C@]56c7ccccc7N1[C@H]5[C@H]2[C@H]3C[C@H]46      pKd  6.81

---

Target: variant III, glycine-binding protein (GBP) (Aplysia californica, UniProt Q8WSF8, C207G/C208T/G162E/I135S/P209G/Q74R/S206K/T53F/Y110A)
Sequence (Q8WSF8 18-236 C207G/C208T/G162E/I135S/P209G/Q74R/S206K/T53F/Y110A limits assumed): as the sequence (Q8WSF8 entry or part of it) above, with T36F, Q57R, Y93A, I118S, G145E, S189K, C190G, C191T, P192G counted along it
Assay: biochemical
pKd: −log10 of the molar value.
measure: pKd

> print(dat)
                                        smi  measure   val
1  O=C1C[C@@H]2OCC=C3CN4CC[C@]56c7ccccc7N1[C@H]5[C@H]2[C@H]3C[C@H]46      pKd  4.54

---

Biological target: WT AcAChBP (Aplysia californica)
Test: biochemical
pKd: −log10 of the molar value.
measure: pKd

> print(dat)
                                   compound   val
1  O=C1C[C@@H]2OCC=C3CN4CC[C@]56c7ccccc7N1[C@H]5[C@H]2[C@H]3C[C@H]46 [strychnine]  7.13

---

Target: WT AcAChBP (Aplysia californica)
Test: Tryptophan fluorescence-quenching assay
Type: binding
Design: made in house; host or cells: baculovirus/Sf9
Settings: binding to WT AcAChBP, tryptophan fluorescence, three titrations; read-out: Kd
measure: Kd (nM)

> print(dat)
                    smi                targetortestsystem  val
1  CN1CCC[C@H]1c1cccnc1  WT AcAChBP (Aplysia californica)  245
